System: Staphylococcus sp.
Assay: in vitro antibacterial evaluation, MIC by broth dilution
Assay type: cell-based
Conditions: broth dilution, 18 hours at 35° C.; strain GC 4542
Numbered stars: 1 amine (or outer) side, 2 acyl side, 3 side chain; on linkers, the order of the positions; unused ones are H or OH. Square brackets hold non-standard residues; d marks the D form. Peptide text beside a SMILES is read from it. * marks the point of attachment. ξ: configuration not given here. X6 = N=C1NCC(CC(N[*:1])C(=O)[*:2])N1C1OC(CO)C(O)C(O)C1O; ξEnduracididine(βξ-OH,4'ξ) = N=C1NCC(C(O)C(N)C(=O)O)N1; X2 = OCC1OC(OC2C(CO)OC(*)C(O)C2O)C(O)C(O)C1O; ξPhe(βξ-Me) = CC(c1ccccc1)C(N)C(=O)O
Assignment: determine reported MIC Staphylococcus aureus (GC 4542) for the given molecules.

Molecule | Tgt | MIC Staphylococcus aureus (GC 4542)
CC(c1ccccc1)C1NC(=O)CNC(=O)C(CO)NC(=O)C(C(O)C2CNC(=N)N2C2OC(CO)C(O)C(O)C2O)NC(=O)C(C(O)C2CNC(=N)N2)NC(=O)C(Cc2ccc(OC3OC(CO)C(OC4OC5COC(c6ccc(C(C)(C)C)cc6)OC5C(O)C4O)C(O)C3O)cc2)NC1=O (stereo not drawn) | Staphylococcus sp. | 0.5 to 1 µg/mL
CC(c1ccccc1)C1NC(=O)CNC(=O)C(CO)NC(=O)C(C(O)C2CNC(=N)N2C2OC(CO)C(O)C(O)C2O)NC(=O)C(C(O)C2CNC(=N)N2)NC(=O)C(Cc2ccc(OC3OC(CO)C(OC4OC5COC(c6cccc(OCc7ccc([N+](=O)[O-])cc7)c6)OC5C(O)C4O)C(O)C3O)cc2)NC1=O (stereo not drawn) | Staphylococcus sp. | >64 µg/mL
CC(c1ccccc1)C1NC(=O)CNC(=O)C(CO)NC(=O)C(CC2CNC(=N)N2C2OC(CO)C(O)C(O)C2O)NC(=O)C(C(O)C2CNC(=N)N2)NC(=O)C(Cc2ccc(OC3OC(CO)C(OC4OC(CO)C(O)C(O)C4O)C(O)C3O)cc2)NC1=O (stereo not drawn) [Example 284b] (cyclo(G[ξPhe(βξ-Me)]Y(X2)[ξEnduracididine(βξ-OH,4'ξ)][X6]S); configuration not given here) | Staphylococcus sp. | >128 µg/mL
CC(c1ccc(F)cc1)C1NC(=O)CNC(=O)C(CO)NC(=O)C(C(O)C2CNC(=N)N2C2OC(CO)C(O)C(O)C2O)NC(=O)C(C(O)C2CNC(=N)N2)NC(=O)C(Cc2ccc(OC3OC(CO)C(OC4OC(CO)C(O)C(O)C4O)C(O)C3O)cc2)NC1=O (stereo not drawn) [Example 261a] | Staphylococcus sp. | >64 µg/mL
CC(c1ccccc1)C1NC(=O)CNC(=O)C(CO)NC(=O)C(C(O)C2CNC(=N)N2C2OC(CO)C(O)C(O)C2O)NC(=O)C(C(O)C2CNC(=N)N2)NC(=O)C(Cc2ccc(OC3OC(CO)C(OC4OC(CO)C(O)C(O)C4O)C(O)C3O)c(N)c2)NC1=O (stereo not drawn) | Staphylococcus sp. | >64 µg/mL

Let us move to another entry and its MIC Staphylococcus aureus (GC 4542).
The recorded MIC Staphylococcus aureus (GC 4542) for N=C1NCC(C(O)C2NC(=O)C(Cc3ccc(OC4OC(CO)C(OC5OC(CO)C(O)C(O)C5O)C(O)C4O)cc3)NC(=O)C(Cc3ccccc3)NC(=O)CNC(=O)C(CO)NC(=O)C(C(O)C3CNC(=N)N3)NC2=O)N1 (stereo not drawn) [Example 296] (cyclo(GFY(X2)[ξEnduracididine(βξ-OH,4'ξ)][ξEnduracididine(βξ-OH,4'ξ)]S); configuration not given here) is >128 µg/mL

Each recorded value in this set is attributed to patent US6914045B2.
